procedureText: Hydroxyl Radical Absorbance Capacity (HORAC) assay
Format: biochemical
statedConditions: in tubo, Gallic Acid standard

- givenSmiles: "OC[C@H]1O[C@@H](Oc2cc(O)cc(/C=C/c3ccc(O)cc3)c2)[C@H](O)[C@@H](O)[C@@H]1O"
  HORAC-hydroxyl: "Strong (>10000)"
- givenSmiles: "COc1cc(/C=C/C(=O)O)ccc1O"
  HORAC-hydroxyl: "Strong (>10000)"
